# credit: patent US11352338B2

test_target: CK1α (Homo sapiens, UniProt P48729+Q96SW2)
Construct: endogenous in cells; host or cells: MV-4-11
Sequence (P48729 whole entry): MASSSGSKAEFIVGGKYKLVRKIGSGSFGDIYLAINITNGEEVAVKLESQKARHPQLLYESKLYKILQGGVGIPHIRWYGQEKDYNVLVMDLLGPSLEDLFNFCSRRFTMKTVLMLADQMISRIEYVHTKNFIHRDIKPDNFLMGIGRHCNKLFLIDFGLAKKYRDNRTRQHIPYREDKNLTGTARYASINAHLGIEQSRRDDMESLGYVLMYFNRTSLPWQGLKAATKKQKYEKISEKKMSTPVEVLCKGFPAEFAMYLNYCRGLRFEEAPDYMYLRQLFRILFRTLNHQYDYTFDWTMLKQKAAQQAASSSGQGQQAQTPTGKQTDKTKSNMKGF
Sequence (Q96SW2 whole entry): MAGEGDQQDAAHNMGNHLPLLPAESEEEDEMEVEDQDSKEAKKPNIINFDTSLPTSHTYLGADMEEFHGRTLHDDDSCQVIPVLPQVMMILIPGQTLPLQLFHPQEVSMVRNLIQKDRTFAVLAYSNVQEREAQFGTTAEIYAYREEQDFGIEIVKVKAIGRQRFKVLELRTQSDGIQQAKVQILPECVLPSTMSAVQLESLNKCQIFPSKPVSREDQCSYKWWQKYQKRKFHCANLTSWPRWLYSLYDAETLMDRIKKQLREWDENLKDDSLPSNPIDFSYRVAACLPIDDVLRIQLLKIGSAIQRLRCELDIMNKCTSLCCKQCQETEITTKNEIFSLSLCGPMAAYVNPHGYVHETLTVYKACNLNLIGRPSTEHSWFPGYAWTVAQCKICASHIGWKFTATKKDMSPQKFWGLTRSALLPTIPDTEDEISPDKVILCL
Sequence (Q16531 whole entry partner): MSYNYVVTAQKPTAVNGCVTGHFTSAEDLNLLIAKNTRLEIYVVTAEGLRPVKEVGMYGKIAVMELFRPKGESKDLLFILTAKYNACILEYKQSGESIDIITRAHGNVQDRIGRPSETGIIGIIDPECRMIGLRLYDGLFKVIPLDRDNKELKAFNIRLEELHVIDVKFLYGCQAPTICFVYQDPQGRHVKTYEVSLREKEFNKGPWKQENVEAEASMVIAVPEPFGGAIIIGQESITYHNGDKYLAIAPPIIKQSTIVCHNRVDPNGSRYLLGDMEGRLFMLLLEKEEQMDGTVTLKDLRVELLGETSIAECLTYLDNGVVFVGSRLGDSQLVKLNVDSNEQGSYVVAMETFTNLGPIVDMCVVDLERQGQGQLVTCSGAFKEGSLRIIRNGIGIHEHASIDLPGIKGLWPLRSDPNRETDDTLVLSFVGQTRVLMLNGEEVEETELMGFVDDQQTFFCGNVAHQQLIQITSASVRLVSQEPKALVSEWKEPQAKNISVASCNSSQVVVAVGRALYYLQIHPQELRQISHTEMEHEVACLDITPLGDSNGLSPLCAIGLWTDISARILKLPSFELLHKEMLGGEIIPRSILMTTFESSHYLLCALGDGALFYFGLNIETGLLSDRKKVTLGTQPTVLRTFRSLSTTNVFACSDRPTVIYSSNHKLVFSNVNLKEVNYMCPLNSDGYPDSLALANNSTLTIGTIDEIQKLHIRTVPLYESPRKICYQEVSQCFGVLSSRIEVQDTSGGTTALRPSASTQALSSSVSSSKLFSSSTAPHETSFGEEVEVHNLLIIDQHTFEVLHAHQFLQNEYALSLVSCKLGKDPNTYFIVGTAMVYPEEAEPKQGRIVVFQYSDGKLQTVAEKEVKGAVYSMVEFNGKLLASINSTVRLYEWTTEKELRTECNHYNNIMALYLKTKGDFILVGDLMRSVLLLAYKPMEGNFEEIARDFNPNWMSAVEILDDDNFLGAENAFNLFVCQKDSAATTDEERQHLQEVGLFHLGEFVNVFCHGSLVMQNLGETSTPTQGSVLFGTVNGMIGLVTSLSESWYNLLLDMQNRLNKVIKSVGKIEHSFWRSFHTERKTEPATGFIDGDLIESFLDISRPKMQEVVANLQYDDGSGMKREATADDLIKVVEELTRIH
assay_name: Western blot, degradation of cellular CK1α in MV-4-11 cells
Type: cell-based
settings: MV4-11, tested at 1 μM, 6-8 hours, read-out: % Degradation compared to DMSO, CK1α
The entries below come with measured Dmax at 1 µM values attached.

# compound, Dmax at 1 µM
data = [
    ("O=C1CCC(N2Cc3c(C4CCCC4)ccc(F)c3C2=O)C(=O)N1 (stereo not shown) [Compound 27]", "< 25%"),
    ("CC(C)c1cc(F)cc2c1CN(C1CCC(=O)NC1=O)C2=O (stereo not shown) [Compound 34]", "50 to 75%"),
    ("Cc1c(F)cc2c(c1C1CCCC1)CN(C1CCC(=O)NC1=O)C2=O (stereo not shown) [Compound 21]", "25 to 50%"),
    ("O=C1CCC(N2Cc3c(cc(F)cc3C3CCCC3)C2=O)C(=O)N1 (stereo not shown) [Compound 1]", "≥ 75%"),
    ("C[C@H](c1cccc2c1CN(C1CCC(=O)NC1=O)C2=O)C(F)(F)F (stereo partly shown) [Compound 31]", "25 to 50%"),
    ("O=C1CCC(N2Cc3c(cccc3C3CC3)C2=O)C(=O)N1 (stereo not shown) [Compound 13]", "50 to 75%"),
    ("CC1(N2Cc3c(cc(F)cc3C3CCCC3)C2=O)CCC(=O)NC1=O (stereo not shown) [Compound 4]", "< 25%"),
    ("CC1(C)CCC(c2cc(F)cc3c2CN(C2CCC(=O)NC2=O)C3=O)CC1 (stereo not shown) [Compound 7]", "< 25%"),
    ("COc1cc2c(c(C3CCCC3)c1)CN(C1CCC(=O)NC1=O)C2=O (stereo not shown) [Compound 14]", "25 to 50%"),
    ("C[C@H](c1cc(F)cc2c1CN(C1CCC(=O)NC1=O)C2=O)C(F)(F)F (stereo partly shown) [Compound 23]", "50 to 75%"),
]

###

test_target: Ikaros (Homo sapiens, UniProt Q13422+Q96SW2)
Construct: endogenous in cells; host or cells: MV-4-11
Sequence (Q13422 whole entry): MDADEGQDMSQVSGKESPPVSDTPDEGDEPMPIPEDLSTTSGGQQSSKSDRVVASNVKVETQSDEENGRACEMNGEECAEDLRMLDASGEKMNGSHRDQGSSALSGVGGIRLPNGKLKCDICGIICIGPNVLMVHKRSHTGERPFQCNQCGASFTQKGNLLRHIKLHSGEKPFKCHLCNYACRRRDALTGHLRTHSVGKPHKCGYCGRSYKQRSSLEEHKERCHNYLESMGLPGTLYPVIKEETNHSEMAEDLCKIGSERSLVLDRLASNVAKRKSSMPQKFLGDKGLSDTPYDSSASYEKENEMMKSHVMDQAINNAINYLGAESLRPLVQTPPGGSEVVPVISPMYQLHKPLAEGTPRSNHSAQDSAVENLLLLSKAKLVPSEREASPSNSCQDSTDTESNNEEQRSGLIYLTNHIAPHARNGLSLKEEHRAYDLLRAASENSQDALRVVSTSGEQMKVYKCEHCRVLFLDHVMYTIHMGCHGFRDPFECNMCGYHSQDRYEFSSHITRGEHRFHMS
Sequence (Q96SW2 whole entry): as the sequence (Q96SW2 whole entry) above
Sequence (Q16531 whole entry partner): as the sequence (Q16531 whole entry partner) above
assay_name: Western blot, degradation of cellular Ikaros in MV-4-11 cells
Assay type: cell-based
settings: MV4-11, tested at 1 μM, 6-8 hours, read-out: % Degradation compared to DMSO, Ikaros

# compound, test_target, Dmax at 1 µM
records = [
    ("CC1CC(=O)NC(=O)C1N1Cc2c(cc(F)cc2C2CCCC2)C1=O (centres unmarked)", "Ikaros (Homo sapiens, UniProt Q13422+Q96SW2)", "< 25%"),
    ("O=C1CC(N2Cc3c(cc(F)cc3C3CCCC3)C2=O)C(=O)N1 (centres unmarked)", "Ikaros (Homo sapiens, UniProt Q13422+Q96SW2)", "< 25%"),
    ("CCC(C)c1cc(F)cc2c1CN(C1CCC(=O)NC1=O)C2=O (centres unmarked)", "Ikaros (Homo sapiens, UniProt Q13422+Q96SW2)", "< 25%"),
    ("O=C1CCC(N2Cc3c(cc(F)cc3C3CCC(F)(F)CC3)C2=O)C(=O)N1 (centres unmarked)", "Ikaros (Homo sapiens, UniProt Q13422+Q96SW2)", "≥ 75%"),
    ("CC1(C)CC=C(c2cc(F)cc3c2CN(C2CCC(=O)NC2=O)C3=O)CC1 (centres unmarked)", "Ikaros (Homo sapiens, UniProt Q13422+Q96SW2)", "< 25%"),
    ("O=C1CCC(N2Cc3c(ccc(F)c3C3CCCC3)C2=O)C(=O)N1 (centres unmarked)", "Ikaros (Homo sapiens, UniProt Q13422+Q96SW2)", "< 25%"),
    ("O=C1CCC(N2Cc3c(cc(F)cc3C3CCCCCC3)C2=O)C(=O)N1 (centres unmarked)", "Ikaros (Homo sapiens, UniProt Q13422+Q96SW2)", "25 to 50%"),
    ("O=C1CCC(N2Cc3c(cc(F)cc3C3CC3)C2=O)C(=O)N1 (centres unmarked)", "Ikaros (Homo sapiens, UniProt Q13422+Q96SW2)", "25 to 50%"),
    ("O=C1CCC(N2Cc3c(cccc3C3CCCC3)C2=O)C(=O)N1 (centres unmarked)", "Ikaros (Homo sapiens, UniProt Q13422+Q96SW2)", "< 25%"),
    ("O=C1CCC(N2Cc3c(cc(C(F)(F)F)cc3C3CCCC3)C2=O)C(=O)N1 (centres unmarked)", "Ikaros (Homo sapiens, UniProt Q13422+Q96SW2)", "25 to 50%"),
    ("Cc1c(F)cc2c(c1C1CCCC1)CN(C1CCC(=O)NC1=O)C2=O (centres unmarked)", "Ikaros (Homo sapiens, UniProt Q13422+Q96SW2)", "25 to 50%"),
    ("C[C@H](c1cc(F)cc2c1CN(C1CCC(=O)NC1=O)C2=O)C(F)(F)F (some centres unmarked)", "Ikaros (Homo sapiens, UniProt Q13422+Q96SW2)", "< 25%"),
    ("O=C1CCC(N2Cc3c(cc(F)cc3C3=CCC(F)(F)CC3)C2=O)C(=O)N1 (centres unmarked)", "Ikaros (Homo sapiens, UniProt Q13422+Q96SW2)", "< 25%"),
    ("COc1cc2c(c(C3CCCC3)c1)CN(C1CCC(=O)NC1=O)C2=O (centres unmarked)", "Ikaros (Homo sapiens, UniProt Q13422+Q96SW2)", "50 to 75%"),
]

###

System: TNFα
assay_name: TNFα inhibition, LPS-induced PBMCs or CD14+ monocytes, Meso Scale assay
Assay type: cell-based
settings: tested at 10 μM, LPS 100 ng/mL 18-24 h; read-out: % Inhibition compared to DMSO, TNFα
The entries below come with measured inhibition at 10 µM values attached.

# compound, inhibition at 10 µM
rows = [
    ("O=C1CCC(N2C(=O)c3cc(F)cc(C4CCCC4)c3C2=O)C(=O)N1 (stereo not drawn)", "25 to 50%"),
    ("O=C1CCC(N2Cc3c(cc(F)cc3C3CC3)C2=O)C(=O)N1 (stereo not drawn)", "> 50%"),
    ("CC1(C)CC=C(c2cc(F)cc3c2CN(C2CCC(=O)NC2=O)C3=O)CC1 (stereo not drawn)", "25 to 50%"),
]

###

test_target: PDE6D (Homo sapiens, UniProt O43924+Q96SW2)
Construct: endogenous in cells; host or cells: MV-4-11
Sequence (O43924 whole entry): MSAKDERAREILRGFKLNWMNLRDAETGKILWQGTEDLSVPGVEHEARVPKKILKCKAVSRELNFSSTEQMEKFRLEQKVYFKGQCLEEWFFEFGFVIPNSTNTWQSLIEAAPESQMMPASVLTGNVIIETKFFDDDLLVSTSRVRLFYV
Sequence (Q96SW2 whole entry): as the sequence (Q96SW2 whole entry) above
Sequence (Q16531 whole entry partner): as the sequence (Q16531 whole entry partner) above
assay_name: Western blot, degradation of cellular PDE6D in MV-4-11 cells
Format: cell-based
settings: MV4-11; tested at 1 μM, MV-4-11 cells, 6-8 hours; read-out: % Degradation compared to DMSO, PDE6D
The entries below come with measured Dmax at 1 µM values attached.

# compound, Dmax at 1 µM
data = [
    ("CC1(C)CC=C(c2cc(F)cc3c2CN(C2CCC(=O)NC2=O)C3=O)CC1 (stereo not shown)", "< 25%"),
    ("O=C1CCC(N2Cc3c(cc(F)cc3C3=CCC(F)(F)CC3)C2=O)C(=O)N1 (stereo not shown)", "≥ 75%"),
    ("O=C1CCC(N2Cc3c(cccc3C3CCCC3)C2=O)C(=O)N1 (stereo not shown)", "≥ 75%"),
    ("O=C1CCC(N2Cc3c(cc(Cl)cc3C3CCCC3)C2=O)C(=O)N1 (stereo not shown)", "< 25%"),
    ("O=C1CCC(N2Cc3c(cc(F)cc3C3CCCC3)C2=O)C(=O)N1 (stereo not shown)", "≥ 75%"),
    ("O=C1CC(N2Cc3c(cc(F)cc3C3CCCC3)C2=O)C(=O)N1 (stereo not shown)", "≥ 75%"),
    ("CC1(C)CCCC1c1cc(F)cc2c1CN(C1CCC(=O)NC1=O)C2=O (stereo not shown)", "50 to 75%"),
]

###

The entries below come with measured Dmax at 1 µM values attached.
test_target: PDE6D (Homo sapiens, UniProt O43924+Q96SW2)
Construct: endogenous in cells; host or cells: MV-4-11
assay_name: Western blot, degradation of cellular PDE6D in MV-4-11 cells
Format: cell-based
settings: MV4-11; tested at 1 μM, MV-4-11 cells, 6-8 hours; read-out: % Degradation compared to DMSO, PDE6D
readout: Dmax at 1 µM

# molecule, test_target, readout, assay_result
measured = [
    ("C[C@@H](c1cccc2c1CN(C1CCC(=O)NC1=O)C2=O)C(F)(F)F (some centres unmarked)", "PDE6D (Homo sapiens, UniProt O43924+Q96SW2)", "Dmax at 1 µM", "< 25%"),
    ("COc1cc2c(c(C3CCCC3)c1)CN(C1CCC(=O)NC1=O)C2=O (centres unmarked)", "PDE6D (Homo sapiens, UniProt O43924+Q96SW2)", "Dmax at 1 µM", "25 to 50%"),
    ("CCC1(N2Cc3c(cc(F)cc3C3CCCC3)C2=O)CCC(=O)NC1=O (centres unmarked)", "PDE6D (Homo sapiens, UniProt O43924+Q96SW2)", "Dmax at 1 µM", "25 to 50%"),
    ("CC1(N2Cc3c(cc(F)cc3C3CCCC3)C2=O)CCC(=O)NC1=O (centres unmarked)", "PDE6D (Homo sapiens, UniProt O43924+Q96SW2)", "Dmax at 1 µM", "< 25%"),
    ("O=C1CCC(N2Cc3c(cc(F)cc3C3CCCCCC3)C2=O)C(=O)N1 (centres unmarked)", "PDE6D (Homo sapiens, UniProt O43924+Q96SW2)", "Dmax at 1 µM", "≥ 75%"),
]
